Reported log10(IC50) values for a set of compounds
Tested on: KRAS G12C-dependent Ba/F3 cells
procedure.details: Ba/F3 proliferation assay, KRAS G12C
Format: cell-based
applied.conditions: Mus musculus, BaF3, 72 h, AlamarBlue
measurement.name: log10(IC50) (log10 of the value in nM)

structure.string	value.measured
C[C@H](NC(=O)c1ccn(-c2cc(O[C@@H](C)[C@@H]3CCCN3C)nc(-c3noc4c3CCC[C@@]43CCCc4sc(N)c(C#N)c43)n2)n1)c1ccccn1	0.48
CO[C@H]1CCN(C)[C@@H]1[C@H](C)Oc1cc(-n2ccc(CC(=O)NC(C)C)n2)nc(-c2onc3c2CCC[C@@]32CCCc3sc(N)c(C#N)c32)n1	0.60
C[C@H](Oc1cc(-c2cn(C)nn2)nc(-c2onc3c2CCC[C@@]32CCCc3sc(N)c(C#N)c32)n1)[C@@H]1CCCN1C	1.32
CNC1CCN(c2cc(O[C@@H](C)[C@@H]3CCCN3C)nc(-c3noc4c3CCC[C@@]43CCCc4sc(N)c(C#N)c43)n2)CC1	3.28
C[C@H](Oc1cc(-n2cc3ccn([C@@H](C)c4ccccn4)c(=O)c3n2)nc(-c2noc3c2CCC[C@@]32CCCc3sc(N)c(C#N)c32)n1)[C@@H]1CCCN1C	1.28
C[C@H](Oc1cc(-n2cc(Cn3ccnc3)nn2)nc(-c2noc3c2CCC[C@@]32CCCc3sc(N)c(C#N)c32)n1)[C@@H]1CCCN1C	1.40
C[C@H](Oc1cc(-n2cncc3ccnc2-3)nc(-c2noc3c2CCC[C@@]32CCCc3sc(N)c(C#N)c32)n1)[C@@H]1CCCN1C	1.08
C[C@H]1CN(C)CCCN1c1cc(N2CCN(C)CC2)nc(-c2onc3c2CCC[C@@]32CCCc3sc(N)c(C#N)c32)n1	2.78
C[C@H](Oc1cc(N2CCN(C)C3(COC3)C2)nc(-c2noc3c2CCC[C@@]32CCCc3sc(N)c(C#N)c32)n1)[C@@H]1C[C@@H](F)CN1C	2.00
C[C@H](Oc1cc(-n2cc3c(n2)CCNC3)nc(-c2noc3c2CCC[C@@]32CCCc3sc(N)c(C#N)c32)n1)[C@@H]1CCCN1C	2.47
C[C@H](Oc1cc(-c2ccn(C[C@H]3CCOC3)n2)nc(-c2noc3c2CCC[C@@]32CCCc3sc(N)c(C#N)c32)n1)[C@@H]1CCCN1C	1.04
COCCNC(=O)c1ccn(-c2cc(O[C@@H](C)[C@@H]3[C@@H](OC)CCN3C)nc(-c3noc4c3CCC[C@@]43CCCc4sc(N)c(C#N)c43)n2)n1	0.00
